In what follows, each item is paired with its IC50 for TrkA (Homo sapiens (Human), UniProt P04629).
Structures can show the parent of a compound that is named as a salt.

State the recorded IC50 for every item in the following list.
1. COCCN1C[C@@H](NC(=O)Nc2c(C)c(COC)nn2-c2ccccc2)[C@H](c2ccc(F)c(F)c2)C1
2. COCCN1C[C@@H](NC(=O)Nc2c(Cl)c(COC3CCNCC3)nn2-c2ccccc2)[C@H](c2ccc(F)c(F)c2)C1 [Example 590, dihydrochloride]
3. COCCN1C[C@@H](NC(=O)Nc2c(C)c(-c3ccccc3)nn2-c2ccccc2)[C@H](c2cc(F)c(F)c(F)c2)C1
4. COCCN1C[C@@H](NC(=O)Nc2c(C)c(-c3ncn(C)n3)nn2-c2ccccc2)[C@H](c2ccc(F)c(F)c2)C1
5. COCCN1C[C@@H](NC(=O)Nc2c(Br)c(-c3cnn(C)c3)nn2-c2ccccc2)[C@H](c2cncc(F)c2)C1
6. COCCN1C[C@@H](NC(=O)Nc2c(C)c(C(C)(C)CO)nn2-c2ccccc2)[C@H](c2ccc(F)c(F)c2)C1

1: < 0.1 µM; 2: < 0.1 µM; 3: < 0.1 µM; 4: < 0.1 µM; 5: < 0.1 µM; 6: < 0.1 µM

State the recorded IC50 for every item in the following list.
1. COCCN1C[C@@H](NC(=O)Nc2c(Br)c(C(C)(C)C#N)nn2-c2ccccc2)[C@H](c2ccc(F)c(F)c2)C1
2. COCCN1C[C@@H](NC(=O)Nc2c3c(nn2-c2cnn(C)c2)CCC3)[C@H](c2ccccc2)C1 (relative stereo)
3. CCOc1nn(-c2cnccn2)c(NC(=O)N[C@@H]2CN(CCOC)C[C@H]2c2ccc(F)c(F)c2)c1C
4. COCCN1C[C@@H](NC(=O)Nc2c(C)c(C3CC3)nn2-c2ccccc2)[C@H](c2ccc(F)c(F)c2)C1

1. < 0.1 µM
2. 0.1 to 1 µM
3. 0.1 to 1 µM
4. < 0.1 µM

State the recorded IC50 for every item in the following list.
1. COCCN1C[C@@H](NC(=O)Nc2c(C)c(OCCN3CCN(C(C)=O)CC3)nn2-c2ccccc2)[C@H](c2ccc(F)c(F)c2)C1
2. COCCN1C[C@@H](NC(=O)Nc2c3c(nn2C2CCCCC2)CCC3)[C@H](c2ccc(F)c(F)c2)C1

< 0.1 µM
< 0.1 µM

Look at this compound and give its reported IC50. COCC(C(=O)OC)N1CC(NC(=O)Nc2c3c(nn2-c2ccccc2)CCC3)[C@H](c2ccccc2)C1 (stereo in doubt)
< 0.1 µM
